Assign pIC50 to each entry below.
molecular target: active p38 alpha enzyme (Upstate Biotechnology) (Homo sapiens, UniProt Q16539); construct: purchased Upstate Biotechnology; assay: p38α biochemical assay (ATP turnover, luminescent detection, Cambrex PKlight); conditions: p38α kinase; Table 1 Biological Activity
Sequence (Q16539 whole entry): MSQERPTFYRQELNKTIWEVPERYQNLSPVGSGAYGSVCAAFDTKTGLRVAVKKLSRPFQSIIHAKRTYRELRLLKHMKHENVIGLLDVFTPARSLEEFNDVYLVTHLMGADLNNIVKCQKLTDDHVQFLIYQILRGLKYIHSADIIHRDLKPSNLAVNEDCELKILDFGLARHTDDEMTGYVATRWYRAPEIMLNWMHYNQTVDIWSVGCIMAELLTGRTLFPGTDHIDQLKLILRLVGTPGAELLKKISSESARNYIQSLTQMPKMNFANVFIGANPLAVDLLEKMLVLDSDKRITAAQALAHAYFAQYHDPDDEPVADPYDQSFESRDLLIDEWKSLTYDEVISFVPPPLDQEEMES
pIC50: −log10 of the molar value.

pIC50 lookup needed for CC(=O)N1CCC(c2[nH]nc(-c3ccc(F)cc3)c2-c2nc(C(=O)NC(C)C)cs2)CC1 , thanks. ≥ 6.00

Follow-up item: Cc1ccc(CNC(=O)c2csc(-c3sc(C)nc3-c3ccc(F)cc3)n2)cc1 ≥ 6.00

Follow-up item: CC(C)NC(=O)c1csc(-c2c(-c3ccc(F)cc3)noc2CNCC(C)c2ccccc2)n1 (stereo not shown) [Example 1448] < 6.00

Follow-up item: CC(C)NC(=O)c1csc(-c2c(-c3ccc(F)cc3)n[nH]c2C2CCN(C(=O)c3ccc(Cl)c(Br)c3)CC2)n1 < 6.00

Follow-up item: Cc1nc(-c2ccc(F)cc2)c(-c2nc(C(=O)Nc3ccccc3C)cs2)s1 < 6.00

Follow-up item: CCCCN(CC)C(=O)c1csc(-c2sc(C)nc2-c2ccc(F)cc2)n1 < 6.00

Follow-up item: CC(C)NC(=O)c1csc(-c2oc(CNCCN(C)C)nc2-c2ccc(F)cc2)n1 < 6.00

Follow-up item: Cc1nc(-c2ccc(F)cc2)c(-c2nc(C(=O)N(C)Cc3ccccc3)cs2)s1 < 6.00

Follow-up item: CCN(C)Cc1nc(-c2ccc(F)cc2)c(-c2nc(C(=O)NC(C)C)cs2)o1 < 6.00

Follow-up item: CC(C)NC(=O)c1csc(-c2c(-c3ccc(F)cc3)n[nH]c2C2CCN(C(=O)c3cc4ccccc4cc3O)CC2)n1 < 6.00

Follow-up item: CC(C)NC(=O)c1csc(-c2oc(CNCCN3CCOCC3)nc2-c2ccc(F)cc2)n1 < 6.00

Follow-up item: CC(C)NC(=O)c1csc(-c2oc(CN3Cc4ccccc4C3)nc2-c2ccc(F)cc2)n1 < 6.00

Follow-up item: CC(C)NC(=O)c1csc(-c2oc(CN3CCC(N(C)C(=O)OC(C)(C)C)C3)nc2-c2ccc(F)cc2)n1 (stereo not shown) < 6.00

Follow-up item: CC(C)NC(=O)c1csc(-c2c(-c3ccc(F)cc3)noc2CN2CCN(c3ccccc3C#N)CC2)n1 < 6.00

Follow-up item: Cc1nc(-c2ccc(F)cc2)c(-c2nc(C(=O)NCCO)cs2)s1 ≥ 6.00

Follow-up item: CCC(CO)NC(=O)c1csc(-c2sc(C)nc2-c2ccc(F)cc2)n1 (stereo not shown) [Example 1729] ≥ 6.00

---

molecular target: active p38 alpha enzyme (Upstate Biotechnology) (Homo sapiens, UniProt Q16539); construct: purchased Upstate Biotechnology; assay: p38α biochemical assay (ATP turnover, luminescent detection, Cambrex PKlight); conditions: p38α biochemical assay, Table 1 Biological Activity
pIC50: −log10 of the molar value.
readout: pIC50

pIC50 lookup needed for CC(C)NC(=O)c1csc(-c2oc(CN3CCN(C(=O)Cc4cccc(O)c4)CC3)nc2-c2ccc(F)cc2)n1 , thanks. ≥ 6.00

Follow-up item: Cc1ccc(C(=O)N2CCN(Cc3nc(-c4ccc(F)cc4)c(-c4nc(C(=O)NC(C)C)cs4)o3)CC2)cc1Br < 6.00

Follow-up item: CC(C)NC(=O)c1csc(-c2oc(CN3CCN(C(=O)c4ncc[nH]4)CC3)nc2-c2ccc(F)cc2)n1 ≥ 6.00

Follow-up item: CC(C)NC(=O)c1csc(-c2oc(CNC(=O)c3ccncc3)nc2-c2ccc(F)cc2)n1 ≥ 6.00

Follow-up item: Cc1ccc(C(=O)N2CCN(Cc3nc(-c4ccc(F)cc4)c(-c4nc(C(=O)NC(C)C)cs4)o3)CC2)c(C)c1 ≥ 6.00

Follow-up item: CC(C)NC(=O)c1csc(-c2oc(CN3CCN(C(=O)c4cccc(F)c4F)CC3)nc2-c2ccc(F)cc2)n1 < 6.00

Follow-up item: CC(C)NC(=O)c1csc(-c2oc(CN3CCN(C(=O)c4cc(Cl)ccn4)CC3)nc2-c2ccc(F)cc2)n1 < 6.00

---

target: active p38 alpha enzyme (Upstate Biotechnology) (Homo sapiens); construct: purchased Upstate Biotechnology; experiment: p38α biochemical assay (ATP turnover, luminescent detection, Cambrex PKlight); conditions: p38α biochemical assay, Table 1 Biological Activity
Assign IC50 to each entry below.

IC50 lookup needed for COc1cc(Cl)ccc1C(=O)N1CCN(Cc2nc(-c3ccc(F)cc3)c(-c3nc(C(=O)NC(C)C)cs3)o2)CC1 [Example 476] , thanks. > 1000 nM

Follow-up item: CC(C)NC(=O)c1csc(-c2oc(CN3CCN(C(=O)c4ccccc4)CC3)nc2-c2ccc(F)cc2)n1 [Example 348] > 1000 nM

Follow-up item: CCC(C(=O)NCc1nc(-c2ccc(F)cc2)c(-c2nc(C(=O)NC(C)C)cs2)o1)c1ccccc1 (stereo not shown) [Example 174] > 1000 nM

Follow-up item: CC(C)NC(=O)c1csc(-c2c(-c3ccc(F)cc3)noc2CNC(=O)c2cnc(O)c(Cl)c2)n1 [Example 673] > 1000 nM

Follow-up item: CC(C)NC(=O)c1csc(-c2oc(CN3CCN(C(=O)c4cc(F)cc(F)c4)CC3)nc2-c2ccc(F)cc2)n1 [Example 397] > 1000 nM

Follow-up item: CC(C)NC(=O)c1csc(-c2c(-c3ccc(F)cc3)noc2CNC(=O)c2cc(O)ccc2O)n1 [Example 621] > 1000 nM

Follow-up item: CC(C)NC(=O)c1csc(-c2oc(CN3CCN(C(=O)c4ccc(Cl)nc4)CC3)nc2-c2ccc(F)cc2)n1 [Example 389] > 1000 nM

---

molecular target: active p38 alpha enzyme (Upstate Biotechnology) (Homo sapiens, UniProt Q16539); construct: purchased Upstate Biotechnology; test: p38α biochemical assay (ATP turnover, luminescent detection, Cambrex PKlight); details: p38α kinase; Table 1 Biological Activity
readout: IC50

IC50 lookup needed for Cc1cccc(C(=O)N2CCC(c3[nH]nc(-c4ccc(F)cc4)c3-c3nc(C(=O)NC(C)C)cs3)CC2)c1[N+](=O)[O-] [Example 935] , thanks. > 1000 nM

Follow-up item: Cc1nc(-c2ccc(F)cc2)c(-c2nc(C(=O)NCCN(C(C)C)C(C)C)cs2)s1 [Example 1793] > 1000 nM

Follow-up item: CC(C)NC(=O)c1csc(-c2c(-c3ccc(F)cc3)noc2CBr)n1 [Example 1700] > 1000 nM

Follow-up item: CC(C)NC(=O)c1csc(-c2oc(CNC3CCC3)nc2-c2ccc(F)cc2)n1 [Example 1059] > 1000 nM

Follow-up item: CC(C)NC(=O)c1csc(-c2c(-c3ccc(F)cc3)n[nH]c2C2CCN(C(=O)CCc3ccccc3O)CC2)n1 [Example 895] > 1000 nM

Follow-up item: Cc1nc(-c2ccc(F)cc2)c(-c2nc(C(=O)NCc3cccc(Cl)c3)cs2)s1 [Example 1785] ≤ 1000 nM

Follow-up item: O=C(NCc1cccc(C(F)(F)F)c1)c1csc(-c2c(-c3ccc(F)cc3)n[nH]c2C2CCNCC2)n1 [Example 2144] > 1000 nM

---

target: active p38 alpha enzyme (Upstate Biotechnology) (Homo sapiens); construct: purchased Upstate Biotechnology; experiment: p38α biochemical assay (ATP turnover, luminescent detection, Cambrex PKlight); details: p38α biochemical assay, Table 1 Biological Activity
readout: IC50

IC50 lookup needed for CC(C)NC(=O)c1csc(-c2c(-c3ccc(F)cc3)noc2CNC(=O)c2cc([N+](=O)[O-])ccc2F)n1 , thanks. > 1000 nM

Follow-up item: CC(C)NC(=O)c1csc(-c2c(-c3ccc(F)cc3)noc2CNC(=O)/C=C/c2ccccc2Cl)n1 > 1000 nM

Follow-up item: CC(C)NC(=O)c1csc(-c2oc(CN3CCN(C(=O)c4ccc(OC(C)C)cc4)CC3)nc2-c2ccc(F)cc2)n1 ≤ 1000 nM

Follow-up item: CC(C)NC(=O)c1csc(-c2oc(CNC(=O)c3ccc(F)cc3F)nc2-c2ccc(F)cc2)n1 ≤ 1000 nM

Follow-up item: COc1ccc2cc(C(C)C(=O)NCc3nc(-c4ccc(F)cc4)c(-c4nc(C(=O)NC(C)C)cs4)o3)ccc2c1 (centres unmarked) ≤ 1000 nM

Follow-up item: CC(C)NC(=O)c1csc(-c2oc(CN3CCN(C(=O)c4ccc(Br)cc4)CC3)nc2-c2ccc(F)cc2)n1 > 1000 nM

Follow-up item: CC(C)NC(=O)c1csc(-c2c(-c3ccc(F)cc3)noc2CNC(=O)/C=C/c2ccccc2O)n1 > 1000 nM

Follow-up item: CC(C)NC(=O)c1csc(-c2oc(CNC(=O)C(C(C)C)N(C)C(=O)OC(C)(C)C)nc2-c2ccc(F)cc2)n1 (centres unmarked) > 1000 nM

Follow-up item: CC(C)NC(=O)c1csc(-c2[nH]c(N)nc2-c2ccc(F)cc2)n1 ≤ 1000 nM

Follow-up item: CC(C)NC(=O)c1csc(-c2oc(CN3CCN(C(=O)Cc4ccc(O)c(F)c4)CC3)nc2-c2ccc(F)cc2)n1 ≤ 1000 nM

Follow-up item: CC(C)NC(=O)c1csc(-c2oc(CNC(=O)c3cccc(Br)n3)nc2-c2ccc(F)cc2)n1 > 1000 nM

Follow-up item: CCOc1ccc2ccccc2c1C(=O)NCc1nc(-c2ccc(F)cc2)c(-c2nc(C(=O)NC(C)C)cs2)o1 > 1000 nM

Follow-up item: CC(C)NC(=O)c1csc(-c2c(-c3ccc(F)cc3)noc2CNC(=O)C2CCCCN2C(=O)OC(C)(C)C)n1 (centres unmarked) > 1000 nM

Follow-up item: COc1ccc(C(=O)NCc2nc(-c3ccc(F)cc3)c(-c3nc(C(=O)NC(C)C)cs3)o2)cc1 > 1000 nM

Follow-up item: CC(C)NC(=O)c1csc(-c2oc(CN3CCN(C(=O)c4ccc(Cl)c([N+](=O)[O-])c4)CC3)nc2-c2ccc(F)cc2)n1 > 1000 nM

Follow-up item: CC(C)NC(=O)c1csc(-c2c(-c3ccc(F)cc3)noc2CNC(=O)Cc2ccc(O)c(F)c2)n1 > 1000 nM

Follow-up item: CC(C)NC(=O)c1coc(-c2c(-c3ccc(F)cc3)noc2C2CCNCC2)n1 ≤ 1000 nM

Follow-up item: CC(C)NC(=O)c1csc(-c2c(-c3ccc(F)cc3)noc2CNC(=O)/C=C/c2ccccc2)n1 > 1000 nM

Follow-up item: CC1=NN(c2ccc(C(=O)NCc3nc(-c4ccc(F)cc4)c(-c4nc(C(=O)NC(C)C)cs4)o3)cc2)C(=O)C1 ≤ 1000 nM

Follow-up item: CC(C)NC(=O)c1csc(-c2c(-c3ccc(F)cc3)noc2C2CCNCC2)n1 ≤ 1000 nM

Follow-up item: O=C(O)c1csc(-c2c(-c3ccc(F)cc3)n[nH]c2C2CCNCC2)n1 > 1000 nM

Follow-up item: CC(C)NC(=O)c1csc(-c2oc(CN3CCN(C(=O)Cc4ccccc4O)CC3)nc2-c2ccc(F)cc2)n1 ≤ 1000 nM

Follow-up item: CC(C)NC(=O)c1csc(-c2c(-c3ccc(F)cc3)noc2CNC(=O)C2CCCCC2)n1 > 1000 nM

Follow-up item: CC(C)NC(=O)c1csc(-c2oc(CNC(=O)CCc3nc4ccccc4[nH]3)nc2-c2ccc(F)cc2)n1 ≤ 1000 nM

Follow-up item: CC(C)NC(=O)c1csc(-c2c(-c3ccc(F)cc3)ncn2C2CCN(C(=O)CO)CC2)n1 ≤ 1000 nM

Follow-up item: CCN(CC)c1ccc(C(=O)NCc2nc(-c3ccc(F)cc3)c(-c3nc(C(=O)NC(C)C)cs3)o2)cc1 ≤ 1000 nM

Follow-up item: CC(C)NC(=O)c1csc(-c2c(-c3ccc(F)cc3)noc2CNC(=O)c2ccccc2C=O)n1 > 1000 nM

Follow-up item: CC(C)NC(=O)c1csc(-c2oc(CN3CCN(C(=O)c4cc(F)c(Cl)cc4F)CC3)nc2-c2ccc(F)cc2)n1 > 1000 nM

Follow-up item: CC(C)NC(=O)c1csc(-c2c(-c3ccc(F)cc3)noc2CNC(=O)c2ccc(C(F)(F)F)cc2[N+](=O)[O-])n1 > 1000 nM
